test.description: soluble on expression in E. coli; label from the status in PepcDB or PDB records
readout.name: soluble on expression in E. coli

| sequence.input | readout.name | result |
| --- | --- | --- |
| MCMASKVLNKVMGIIGLNDEDFDEYEDEVMEEKAIARENSYDYDEKLNDKNSSNSNNKVVNIHTASSVKVVIVKPKDYDEATQIDDLKNRKIVVVNVTDLEPKTAQRLLDFMGGASYVLNGELLEIDKGVYLLSPSNVDISRDLKNDLASKSIFNWSKLEHHHHHH | soluble on expression in E. coli | not soluble |
| MKKILFICLGNICRSPMAEFIMKDLVKKANLEKEFFINSAGTSGEHDGEGMHYGTKNKLAQLNIEHKNFTSKKLTQKLCDESDFLITMDNSNFKNVLKNFTNTQNKVLKITDFSPSLNYDEVPDPWYSGNFDETYKILSLACKNLLVFLSKHHHHH | soluble on expression in E. coli | soluble |
| MSLTLFHAPRSRSTRIVTLLRELDAIDKVAIKIVDITRGDGSGRKDPKNLHPEGKVPLLDHDGVVIWESIAIIQYLTDLFPEKKMAPVAGDPQRGRYLSWLAWYAGVVEPVLIMQAAGISHPFVDFTFRSPAELAARLETALKDCPYLMGERYTAVDLLLHSPFAWCPAATPESDVVKAWIERCGERPSLQWTANYDACTVVAEGHHHHHH | soluble on expression in E. coli | soluble |
| MGSDKIHHHHHHMKQMNVVLIGGGTGLSVLARGLREFPIDITAIVTVADNGGSTGKIRDVMDIPAPGDIRNVIAALSDSESILTQLFQYRFGENQVDGHSLGNLVIAGMTNITNDFGHAIKELSKVLNIKGQVIPSTNASVQLNAVMEDGEIVHGETNIPKTHKKIDRVFLEPSDVEPMNEAIEALEQADLIVLGPGSLYTSVISNLCVKGISEALLRTSAPKLYVSNVMTQPGETDNYDVKEHIDALTRQVGEPFIDFVICSSESYSKDVLQRYEEKNSKPVAVHKEQLKDSGIRVLTASNLVEISNEHYVRHNTKVLSKMIYELALELTSTIRFTPSDKKK | soluble on expression in E. coli | not soluble |
| ANKLDSKKLTRSNGTTLEYSQITDADNATKAVETLKNSIKLEGSLVVGKTTVEIKEGTVTLKREIEKDGKVKVFLNDTAGSNKKTGKWEDSTSTLTISADSKKTKDLVFLTDGTITVQQYNTAGTSLEGSASEIKNLSELKNALK | soluble on expression in E. coli | soluble |
| TSADGLKLVANYLEAPSPSNTTIILAHGYRGKSGKVEMAGLARMYNQKFGYNVLMPDARAHGESEGKNIGFGWPERKDYVQWTNQVLDKNGDDTEIVLHGVSMGSSTVLMTSAEKLPKQVKSIIADCGYTSMDAELAYQLKAMFHLPKFPIIPMASLINKVKEGFFFSEASAINAVAETDLPIFYIHGDSDAFVPTSMVEELYDATKSYKEKWVVKGAEHGQAFTVEPETYEEKVRQFLTKTM | soluble on expression in E. coli | not soluble |
| KDFCASIHRNDSLSLTHELEPFIDSMKNKTGVYVLEDGGGSLITRAWLSEYAEETIDIQYFIFSADNVGLIACDYLVRAADRGVKVRILIDDILVEAGVHEILTLDSHENIEIKIYNPGINLGKNIFNKIGKFTTDFRGANQRMHNKTFIVDHKVVITGGRNIADEYFDYDHEYNFRDRDVLLIGKTATDVQQSFESFWVDALSIPITGLVKEDDVTYTDTSRFERLHQYACNPDNFWPQVRKRISN | soluble on expression in E. coli | not soluble |
| MSNVHPYTIFATMPHKSTAKDILIMSYDLSKRLVIGLASSALFDLSESDNIFRMEGAETYRQYQREKQNHPLKKALSFHLLKNFCQSMK | soluble on expression in E. coli | not soluble |
| MAKENYSDPNGKLLNSITTFEVNGEEVKLSGNIIRDYLVSGNAEVTDQEIIMFLQLCKYQKLNPFLNEAYLVKFKNTKGPDKPAQIIVSKEAFMKRAETHEQYDGFEAGIIVERNGEVVEIEGAVSLDKDKLLGGWAKVFRKDRSRPVSVRISEREFNKRQSTWNAMPLTMMRKTAVVNAMREAFPDNLGAMYTEEEQGSLQNNETSVQEEIKQNANTEMLDIPAQQIEVPDFKEIREPEHVEMPPIYDEQPSTPPARPY | soluble on expression in E. coli | not soluble |
| MGSDKIHHHHHHMSDGRLTALFPAFPHPASNQPVFAEASPHDDELMTQAVPQVSCQQALAIAQQEYGLSGQMSLLQGERDVNFCLTVTPDERYMLKVINAAEPADVSNFQTALLLHLARQAPELPVPRIRSTKAGQSETGVEIDGVLLRVRLVSYLAGMPQYLASPSTALMPQLGGTLAQLDNALHSFTHPAANRALLWDISRAEQVRPYLDFVSEPQQYQHLQRIFDRYDSNVAPLLTTLRRQVIHNDLNPHNVLVDGSSPTRVTGIIDFGDAVFAPLICEVATALAYQIGDGTDLLEHVVPFVAAYHQRIPLAPEEIALLPDLIATRMALTLTIAQWRASRYPDNREYLLRNVPRCWHSLQRIATYSHAQFLTRLQQVCPENAR | soluble on expression in E. coli | not soluble |
| MKHSGYLWAIGKNVWKRWKKRFFVLVQVSQYTFAMCSYREKKAEPQELLQLDGYTVDYTDPQPGLEGGRAFFNAVKEGDTVIFASDDEQDRILWVQAMYRATGQSHKPVPPTQ | soluble on expression in E. coli | soluble |
| MGSDKIHHHHHHARDTLFVNLTDATDSQSLKLSDFGNTVRYVPLETNEVCLIGNNPHIALLEDKIVIATKDQCFLFHKQTGKYICSIGHIGDDPSGYSSTNYWIDDAGLFYFFRAPDQLLKYNQKGEMTGKIQIPHIPAAPDFFAFSDSTIIAHCNSSIGLESSNSLLFLNSFGEKLDSIPNLLKSPSIPSPDNISSLSIIKRGAGFFGNLGRRGVMIIKDKEQGELLLPLYNPSLWSSENEVRFRETFTDTIYTIKNRKLYPYMVFHTDTDHSSANPLWYSNPQSIYVAYVLENTHSVFFQYVKNKQVYNGLYNKETQQTKFAKCQQFIVDDLTSEQELKVDLSALCSYKGEYGFILEAASIPDASQKQSDNKNENIPHWMSQLDEDANPVIAIVSDK | soluble on expression in E. coli | not soluble |
